Molecular target: KSHV GPCR (Human herpesvirus 8 type P)
Construct: expressed in transfected cells; host or cells: COS-1
Sequence (Q98146 1-342): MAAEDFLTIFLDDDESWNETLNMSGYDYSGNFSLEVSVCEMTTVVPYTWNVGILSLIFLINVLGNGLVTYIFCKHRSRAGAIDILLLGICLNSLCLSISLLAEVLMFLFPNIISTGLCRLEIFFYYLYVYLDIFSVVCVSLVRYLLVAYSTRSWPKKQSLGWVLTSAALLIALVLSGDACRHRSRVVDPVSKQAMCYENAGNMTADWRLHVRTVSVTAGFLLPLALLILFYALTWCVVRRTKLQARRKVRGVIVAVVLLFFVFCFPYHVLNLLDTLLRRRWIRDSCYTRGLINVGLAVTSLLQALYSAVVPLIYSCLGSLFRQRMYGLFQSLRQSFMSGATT
Assay: Competition binding of 125I-IL-8 by unlabelled chemokines to COS-1 cells transfected with pcKSHV GPCR
Settings: competition of human recombinant 125I-IL-8, COS-1 cells transfected with pcKSHV GPCR, 4° C., 2 hrs; read-out: Kd or Ki
Measurement type: Ki (µM)
Hi! Could you send only the number? It should be in µM, unit omitted.

Ask: Tell us which Ki value is on record for RANTES: chemokine of the C-C family
Result: 0.52
